Experiment: Drug distribution in CB17:SCID mouse xenografted with human VCaP cells assessed as tumor to plasma ratio at 20 mg/kg, po measured at 1 hrs by LCMS analysis
Format: ADME, organism-based

compound	Kp at 1 h
CN(c1ccc(C#N)c(Cl)c1)[C@H]1CC[C@H](NC(=O)c2ccc(N3CCN(C4CN(c5ccc6c(c5)C(=O)N(C5CCC(=O)NC5=O)C6=O)C4)CC3)cc2)CC1 (stereo partly specified)	0.7

====

Assay: Cmax in SCID mouse at 3 mg/kg, po by LC-MS/MS analysis
Format: ADME, organism-based
Design: route oral, dose 3 mg/kg
Conditions: in vivo
observedProperty: Cmax

molecule	observedProperty	value
N#Cc1ccc(O[C@H]2CC[C@H](NC(=O)c3ccc(N4CCC(N5CCN(c6ccc7c(c6)C(=O)N(C6CCC(=O)NC6=O)C7=O)CC5)CC4)cc3)CC2)cc1Cl (stereo partly specified)	Cmax	207 ng/mL

====

Test: Drug distribution in liver of CB17:SCID mouse xenografted with human VCaP cells at 20 mg/kg, po measured at 1 hrs by LCMS analysis
Assay type: ADME, organism-based
Details: read-out: Drug uptake
observedProperty: concentration at 1 h

compound	observedProperty	value
CN(c1ccc(C#N)c(Cl)c1)[C@H]1CC[C@H](NC(=O)c2ccc(N3CCN(C4CN(c5ccc6c(c5)C(=O)N(C5CCC(=O)NC5=O)C6=O)C4)CC3)cc2)CC1 (stereo partly specified)	concentration at 1 h	2640 ng/g

====

Recorded concentration at 24 h by entry
Assay: Drug distribution in plasma of CB17:SCID mouse xenografted with human VCaP cells at 20 mg/kg, po measured at 24 hrs by LCMS analysis
Format: ADME, organism-based

compound	resultUnits	concentration at 24 h
CN(c1ccc(C#N)c(Cl)c1)[C@H]1CC[C@H](NC(=O)c2ccc(N3CCC(N4CCN(c5ccc6c(c5)C(=O)N(C5CCC(=O)NC5=O)C6=O)CC4)CC3)cc2)CC1 (some centres undefined)	ng/mL	65
CN(c1ccc(C#N)c(Cl)c1)[C@H]1CC[C@H](NC(=O)c2ccc(N3CC(N4CCN(c5ccc6c(c5)C(=O)N(C5CCC(=O)NC5=O)C6=O)CC4)C3)cc2)CC1 (some centres undefined)	ng/mL	106
CN(c1ccc(C#N)c(Cl)c1)[C@H]1CC[C@H](NC(=O)c2ccc(N3CCN(C4CN(c5ccc6c(c5)C(=O)N(C5CCC(=O)NC5=O)C6=O)C4)CC3)cc2)CC1 (some centres undefined)	ng/mL	102
CN(c1ccc(C#N)c(Cl)c1)[C@H]1CC[C@H](NC(=O)c2ccc(N3CCN(C4CCN(c5ccc6c(c5)C(=O)N(C5CCC(=O)NC5=O)C6=O)CC4)CC3)cc2)CC1 (some centres undefined)	ng/mL	38

====

Test: Drug distribution in kidney of CB17:SCID mouse xenografted with human VCaP cells at 20 mg/kg, po measured at 24 hrs by LCMS analysis
Format: ADME, organism-based
Conditions: read-out: Drug uptake

compound	resultUnits	concentration at 24 h
CN(c1ccc(C#N)c(Cl)c1)[C@H]1CC[C@H](NC(=O)c2ccc(N3CCN(C4CN(c5ccc6c(c5)C(=O)N(C5CCC(=O)NC5=O)C6=O)C4)CC3)cc2)CC1 (stereo partly specified)	ng/g	366

====

Assay: Drug distribution in heart of CB17:SCID mouse xenografted with human VCaP cells at 20 mg/kg, po measured at 24 hrs by LCMS analysis
Format: ADME, organism-based
Conditions: read-out: Drug uptake
observedProperty: concentration at 24 h (ng/g)

molecule	value
CN(c1ccc(C#N)c(Cl)c1)[C@H]1CC[C@H](NC(=O)c2ccc(N3CCN(C4CN(c5ccc6c(c5)C(=O)N(C5CCC(=O)NC5=O)C6=O)C4)CC3)cc2)CC1 (stereo partly specified)	683

Ref: ChEMBL document CHEMBL4842372
